Where do the numbers come from? From patent US10513519B2.

test system: 64 cancer cell lines; experiment: Anti-proliferative activity across a panel of 64 cancer cell lines (CellTiter-Glo); type: cell-based; details: Homo sapiens, NCI-H460, 72 h, NCI-H460 (Lung)
observable: IC50 (nM)
Answer format: numeric, nM implied, no suffix.

Name the reported IC50 value associated with the compound `C[C@]1(C(N)=O)CC[C@@H](n2c(Nc3c(Cl)cc(Cl)cc3Cl)nc3cnc(N[C@@H]4CCOC[C@H]4F)nc32)CC1`
644

====

tested on: cancer cell lines; assay: Multiplexed cytotoxicity assay: cell proliferation (relative cell count IC50, GI50); type: cell-based; details: HS611T (Hematopoietic and lymphoid, Lymphoma)
observable: pIC50
// pIC50 is dimensionless: -log10 of concentration (M)

Name the reported pIC50 value associated with the compound `C[C@]1(C(N)=O)CC[C@@H](n2c(Nc3c(Cl)cc(Cl)cc3Cl)nc3cnc(N[C@@H]4CCOC[C@H]4F)nc32)CC1`
7.91

====

test system: cancer cell lines; test: Multiplexed cytotoxicity assay: cell proliferation (relative cell count IC50, GI50); format: cell-based; settings: Homo sapiens, Calu-6, 72 h, CALU6, Lung, NSCLC; 72 h
observable: IC50 (nM)
Answer format: numeric, nM implied, no suffix.

Value wanted: IC50 (cancer cell lines) of entry C[C@]1(C(N)=O)CC[C@@H](n2c(Nc3c(Cl)cc(Cl)cc3Cl)nc3cnc(N[C@@H]4CCOC[C@H]4F)nc32)CC1 [Compound 1]
83

====

Test system: cancer cell lines
Assay: Multiplexed cytotoxicity assay: cell proliferation (relative cell count IC50, GI50)
Type: cell-based
Settings: Homo sapiens, SU-DHL-8, SUDHL8 (Hematopoietic and lymphoid, Lymphoma)
Experimental: Cells are grown in RPMI1640, 10% FBS, 2 mM L-alanyl-L-Glutamine, 1 mM Na pyruvate or a special medium in a humidified atmosphere of 5% CO2 at 37° C. Cells are seeded into 384-well plates and incubated in a humidified atmosphere of 5% CO2 at 37° C. […] Apoptotic cells are detected using an anti-active caspase-3 antibody. Mitotic cells are detected using an anti phospho-histone-3 antibody. […] Sixteen-bit TIFF images are acquired and analyzed with MetaXpress 5.1.0.41 software. […]
observable: IC50 (nM)
Answer format: numeric, nM implied, no suffix.

Value wanted: IC50 (cancer cell lines) of entry C[C@]1(C(N)=O)CC[C@@H](n2c(Nc3c(Cl)cc(Cl)cc3Cl)nc3cnc(N[C@@H]4CCOC[C@H]4F)nc32)CC1 [Compound 1]
40.6

====

tested on: cancer cell lines; test: Multiplexed cytotoxicity assay: cell proliferation (relative cell count IC50, GI50); format: cell-based; details: Homo sapiens, NCI-H460, 72 h, NCIH460, Lung, NSCLC; 72 h
observable: IC50

Name the reported IC50 value associated with the molecule `C[C@]1(C(N)=O)CC[C@@H](n2c(Nc3c(Cl)cc(Cl)cc3Cl)nc3cnc(N[C@@H]4CCOC[C@H]4F)nc32)CC1`
> 10 µM

====

tested on: cancer cell lines; assay: Multiplexed cytotoxicity assay: cell proliferation (relative cell count IC50, GI50); assay type: cell-based; conditions: MX1 (Hematopoietic and lymphoid, Leukemia)
observable: IC50 (nM)
Answer format: numeric, nM implied, no suffix.

Name the reported IC50 value associated with the molecule `C[C@]1(C(N)=O)CC[C@@H](n2c(Nc3c(Cl)cc(Cl)cc3Cl)nc3cnc(N[C@@H]4CCOC[C@H]4F)nc32)CC1`
61.9

====

test: Approximate solubility in various solvents at room temperature; format: physicochemical; settings: EtOH, organic solvent or mixture, thermodynamic from solid
observable: solubility at 1 day

Name the reported solubility at 1 day value associated with the compound C[C@]1(C(N)=O)CC[C@@H](n2c(Nc3c(Cl)cc(Cl)cc3Cl)nc3cnc(N[C@@H]4CCOC[C@H]4F)nc32)CC1 [Form A]
> 20 mg/mL

====

assay: Approximate solubility in various solvents at room temperature; assay type: physicochemical; conditions: EtOH/water (1:1), aqueous with cosolvent or surfactant or cyclodextrin, thermodynamic from solid, EtOH/water (1:1)
observable: solubility at 1 day

Name the reported solubility at 1 day value associated with the molecule C[C@]1(C(N)=O)CC[C@@H](n2c(Nc3c(Cl)cc(Cl)cc3Cl)nc3cnc(N[C@@H]4CCOC[C@H]4F)nc32)CC1 [Form A]
> 3000 µg/mL

====

Assay: Approximate solubility in various solvents at room temperature
Assay type: physicochemical
Conditions: water, thermodynamic from solid
Protocol: The resulting mixture was agitated for about 1 day at room temperature. If all of the solids appeared to be dissolved by visual inspection, the estimated solubility was calculated based on the total volume of solvent used to give a complete solution. If solids were present, a known volume of filtrate was evaporated to dryness and the weight of the residue was measured to estimate the solubility. The resulting mixture was agitated for 1 day at room temperature. […]
observable: solubility at 1 day

Name the reported solubility at 1 day value associated with the molecule C[C@]1(C(N)=O)CC[C@@H](n2c(Nc3c(Cl)cc(Cl)cc3Cl)nc3cnc(N[C@@H]4CCOC[C@H]4F)nc32)CC1 [Form A]
< 1000 µg/mL

====

tested on: cancer cell lines; experiment: Multiplexed cytotoxicity assay: cell proliferation (relative cell count IC50, GI50); type: cell-based; settings: Homo sapiens, DU-145, 72 h, DU145, Prostate; 72 h
observable: IC50
Lab note: write values as number then unit, every time.

Value wanted: IC50 (cancer cell lines) of entry `C[C@]1(C(N)=O)CC[C@@H](n2c(Nc3c(Cl)cc(Cl)cc3Cl)nc3cnc(N[C@@H]4CCOC[C@H]4F)nc32)CC1`
0.0965 µM

====

tested on: cancer cell lines; test: Multiplexed cytotoxicity assay: cell proliferation (relative cell count IC50, GI50); format: cell-based; conditions: Homo sapiens, C-33-A, C33A (Female GU, Cervix)
observable: pIC50
// pIC50 is dimensionless: -log10 of concentration (M)

Name the reported pIC50 value associated with the compound `C[C@]1(C(N)=O)CC[C@@H](n2c(Nc3c(Cl)cc(Cl)cc3Cl)nc3cnc(N[C@@H]4CCOC[C@H]4F)nc32)CC1`
6.39

====

tested on: cancer cell lines; assay: Multiplexed cytotoxicity assay: cell proliferation (relative cell count IC50, GI50); type: cell-based; conditions: Homo sapiens, A-427, 72 h, A427, Lung, NSCLC; 72 h
observable: IC50 (nM)
Answer format: numeric, nM implied, no suffix.

Value wanted: IC50 (cancer cell lines) of entry C[C@]1(C(N)=O)CC[C@@H](n2c(Nc3c(Cl)cc(Cl)cc3Cl)nc3cnc(N[C@@H]4CCOC[C@H]4F)nc32)CC1 [Compound 1]
76.3

====

system: 64 cancer cell lines; test: Anti-proliferative activity across a panel of 64 cancer cell lines (CellTiter-Glo); type: cell-based; details: JHH-2, 72 h, JHH-2 (Liver)
observable: pIC50
// pIC50 is dimensionless: -log10 of concentration (M)

Name the reported pIC50 value associated with the compound `C[C@]1(C(N)=O)CC[C@@H](n2c(Nc3c(Cl)cc(Cl)cc3Cl)nc3cnc(N[C@@H]4CCOC[C@H]4F)nc32)CC1`
5.35

====

assay: Dynamic vapor sorption (hygroscopicity); format: physicochemical; details: DVS
observable: hygroscopicity (in words)

CC1(C(N)=O)CCC(n2c(Nc3c(Cl)cc(Cl)cc3Cl)nc3cnc(NC4CCOCC4F)nc32)CC1.O=C(O)CC(O)(CC(=O)O)C(=O)O (centres unmarked) [Form Z]    slightly hygroscopic
C[C@]1(C(N)=O)CC[C@@H](n2c(Nc3c(Cl)cc(Cl)cc3Cl)nc3cnc(N[C@@H]4CCOC[C@H]4F)nc32)CC1    slightly hygroscopic
CC1(C(N)=O)CCC(n2c(Nc3c(Cl)cc(Cl)cc3Cl)nc3cnc(NC4CCOCC4F)nc32)CC1.O=C(O)CC(O)(CC(=O)O)C(=O)O (centres unmarked) [Form Y]    slightly hygroscopic

====

tested on: cancer cell lines; assay: Multiplexed cytotoxicity assay: cell proliferation (relative cell count IC50, GI50); format: cell-based; details: Homo sapiens, A253, A253 (Head and Neck)
pIC50: −log10 of the molar value.
observable: pIC50

Name the reported pIC50 value associated with the compound `C[C@]1(C(N)=O)CC[C@@H](n2c(Nc3c(Cl)cc(Cl)cc3Cl)nc3cnc(N[C@@H]4CCOC[C@H]4F)nc32)CC1`
< 5.00

====

assay: physchem; settings: FaSSGF, fassgf or other biorelevant
observable: solubility (µg/mL)
Answer format: numeric, µg/mL implied, no suffix.

Name the reported solubility value associated with the compound C[C@]1(C(N)=O)CC[C@@H](n2c(Nc3c(Cl)cc(Cl)cc3Cl)nc3cnc(N[C@@H]4CCOC[C@H]4F)nc32)CC1 [Free Base]
3850

====

system: TEAD reporter (8×GTIIC-luciferase) in W138 VA13 cells; assay: TEAD reporter assay; type: cell-based; settings: 72 hour assay, cumulative data of three experiments
observable: IC50 (nM)
Answer format: numeric, nM implied, no suffix.

Name the reported IC50 value associated with the compound C[C@]1(C(N)=O)CC[C@@H](n2c(Nc3c(Cl)cc(Cl)cc3Cl)nc3cnc(N[C@@H]4CCOC[C@H]4F)nc32)CC1 [Compound 1]
1850
